B1: RPAIN (parent)
chain: ISEYEKSLQFDEKCLSIMLAEWEA

variants of: B1; assay: protein stability index of a GFP-peptide fusion (GPS, HEK-293T) (PSI 1-6); higher = more stable; conditions: c terminus: a fixed tail appended;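 also: lentivirally expressed fusions sorted by FACS into six bins by GFP to DsRed ratio, PSI derived from sequencing read proportions per bin multiplied by bin number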
So basically: protein stability index at 2 or higher? That is y. Lower than 2? That is n.

mutation.code: S16L
answer.label: y
//
mutation.code: I17A
answer.label: n
//
mutation.code: L15F
answer.label: y
//
mutation.code: S7R
answer.label: n
//
mutation.code: K13S
answer.label: y
//
mutation.code: A24R
answer.label: n
//
mutation.code: A20L
answer.label: n
//
mutation.code: Y4G
answer.label: n
//
mutation.code: E12K
answer.label: n
//
mutation.code: E3S
answer.label: n
//
mutation.code: K6A
answer.label: y
//
mutation.code: F10C
answer.label: y
//
mutation.code: I1V
answer.label: y
//
mutation.code: S7G
answer.label: n
//
mutation.code: S16P
answer.label: y
//
mutation.code: L8R
answer.label: y
//
mutation.code: E5R
answer.label: n
//
mutation.code: L19S
answer.label: y
//
mutation.code: S2Y
answer.label: y
//
mutation.code: L8Y
answer.label: y
//
mutation.code: E5N
answer.label: n
